System: Chordin-like protein 2 (CHRDL2)
procedure_details: CHRDL2 small-molecule binders, primary screen, biochemical, small-molecule microarray, 635 nm fluorescence (AID 1126);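 further: printed compound slides probed with Chrdl2 protein at 4 µg/mL for 1 h at 4 C; score merges 667 nm emission intensity with signal to noise over three replicate slides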
recorded_conditions: small-molecule microarray binding, fluorescence 635 nm; higher = more signal
Respond with MET for composite z-score values of 0.6 and above, NOT MET for values below.

For orientation, consider the following solved cases.
COc1cc(COC(C)=O)ccc1OC(C)=O    NOT MET
COC(=O)[C@@]1(Cc2ccc(OC)cc2)[C@H]2c3cc(C(=O)N4CCCC4)n(CCN4CNCC4=O)c3C[C@H]2CN1C(=O)c1ccccc1    NOT MET
COCCOC(=O)N1C(=O)[C@@]2(c3cc(C#CCCO)ccc31)[C@H](C(N)=O)[C@H]1C(=O)O[C@H](c3ccccc3)[C@H](c3ccccc3)N1[C@@H]2c1ccc(O)cc1    NOT MET

[ask] Entry "COCCCNC(=O)[C@@H]1c2ccccc2C(=O)N(Cc2ccccc2Cl)[C@H]1c1ccc(CO)cc1" : is its composite z-score no less than 0.6?
[reply] MET

[ask] Item "C=CCN1C(=O)[C@]2(O[C@H](CCn3cc([C@H](O)c4ccccc4)nn3)[C@@H]([Si](C)(C)c3ccc(OC)cc3)[C@@H]2C)c2ccccc21" with composite z-score of 0.6 or above?
[reply] NOT MET

[ask] Exam item: decide whether the reported composite z-score for "O=C(c1ccccc1)N1C(=O)[C@]2(COC(c3ccc(OCCCO)cc3)=N2)Cc2ccccc21" is at least 0.6.
[reply] MET
